biological target: Homeobox protein Hox-A13 (Mus musculus) (UniProt Q62424); assay: disruptors of Hoxa13 oligonucleotide interaction – biochemical, fluorescence polarization, labeled oligonucleotide, primary screen (AID 1185); details: Hoxa13:DNA binding, 15 min, higher = more signal, called active from +8 up or from −8 down
Sequence (Q62424 whole entry, looked up): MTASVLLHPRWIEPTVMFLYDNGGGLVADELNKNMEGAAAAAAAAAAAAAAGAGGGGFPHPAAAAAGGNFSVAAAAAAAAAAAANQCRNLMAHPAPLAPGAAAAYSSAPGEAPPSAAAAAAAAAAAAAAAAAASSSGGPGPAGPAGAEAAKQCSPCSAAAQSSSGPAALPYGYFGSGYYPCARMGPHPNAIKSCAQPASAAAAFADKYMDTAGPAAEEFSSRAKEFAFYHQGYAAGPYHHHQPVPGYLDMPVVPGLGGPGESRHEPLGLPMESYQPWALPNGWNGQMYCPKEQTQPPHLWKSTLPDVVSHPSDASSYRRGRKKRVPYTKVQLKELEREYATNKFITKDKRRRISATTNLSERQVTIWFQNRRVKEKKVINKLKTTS
reported.metric: z-score
Numbers only.

Worked set:
compound	experimental.target	z-score
O=C1C2C=CC(C(O)c3cccs3)N(Nc3ccc([N+](=O)[O-])cc3)C2C(=O)N1c1ccccc1 (centres undefined)	Homeobox protein Hox-A13 (Mus musculus) (UniProt Q62424)	-4.16
O=C1C=C(c2ccccc2)C(=O)C2=C1CC([C@H]1Oc3ccccc3S(=O)(=O)N3CCC[C@@H]13)=CC2	Homeobox protein Hox-A13 (Mus musculus) (UniProt Q62424)	-3.85
O=C1O[C@@H](c2ccccc2)[C@@H](c2ccccc2)N2[C@@H](c3ccc(OCCO)cc3)[C@]3(C(=O)Nc4ccc(C#CC5(O)CCCCCC5)cc43)[C@@H](C(=O)O)[C@H]12	Homeobox protein Hox-A13 (Mus musculus) (UniProt Q62424)	-6.03

NC(=O)N1C(=O)C2C(C1=O)C1C=C(CCCO)C2C(C2CC2)N1Cc1sc2ccccc2c1Cl (centres undefined) tested on Homeobox protein Hox-A13 (Mus musculus) (UniProt Q62424) gave z-score: -4.04
